The values you see were collected from paper PMC6150173.

Tested on: erythrocyte suspensions of human blood
assayProtocol: Hemolytic activity, hemoglobin release
Assay type: cell-based
details: peptide 50 μM (table prints 50 µM); human blood erythrocytes 5% v/v; absorbance 540 nm; percentage compared to melittin; three replicates
Peptide text beside a SMILES is read from it.
Quick list: Hemolysis (%) at 50 µM per entry.
Respond numerically; units are % and should not be typed.

I am curious: what Hemolysis (%) at 50 µM value has been reported for CC(C)C[C@@H]1NC(=O)[C@H](CCCCN)NC(=O)[C@H](Cc2c[nH]c3ccccc23)NC(=O)[C@H](CCCCN)NC(=O)[C@H](CCCCN)NC(=O)[C@H](CC(C)C)NC(=O)[C@H](CC(C)C)NC(=O)[C@H](CCCCN)NC(=O)[C@H](CCC(N)=O)NC(=O)[C@H](CCCCN)NC1=O [BPC122W, c(KLLKKWKLKQ)] (cyclo(KKWKLKQKLL)) ?
2

Next up:
I am curious: what Hemolysis (%) at 50 µM value has been reported for CC(C)C[C@@H]1NC(=O)[C@H](CCCCN)NC(=O)[C@H](CCCCN)NC(=O)[C@H](CCCCN)NC(=O)[C@H](CCC(N)=O)NC(=O)[C@H](CCCCN)NC(=O)[C@H](CCCCN)NC(=O)[C@H](CC(C)C)NC(=O)[C@H](Cc2c[nH]c3ccccc23)NC(=O)[C@H](CC(C)C)NC1=O [BPC128W, c(KKKLLWLKKQ)] (cyclo(KKKLLWLKKQ)) ?
2

###

Quick list: Hemolysis (%) at 50 µM per entry.
Test system: erythrocyte suspensions of human blood
assayProtocol: Hemolytic activity, hemoglobin release
Format: cell-based
details: peptide 50 μM (table prints 50 µM); human blood erythrocytes 5% v/v; absorbance 540 nm; percentage compared to melittin; three replicates
Peptide text beside a SMILES is read from it.
Respond numerically; units are % and should not be typed.

Check out these entries, answers already filled in.
I am curious: what Hemolysis (%) at 50 µM value has been reported for CC(C)C[C@@H]1NC(=O)[C@H](CCCCN)NC(=O)[C@H](CCCCN)NC(=O)[C@H](Cc2c[nH]c3ccccc23)NC(=O)[C@H](CC(C)C)NC(=O)[C@H](CC(C)C)NC(=O)[C@H](CCCCN)NC(=O)[C@H](CCCCN)NC(=O)[C@H](CCCCN)NC(=O)[C@H](CCC(N)=O)NC1=O [BPC080W, c(KKKLLWKKLQ)] (cyclo(KKKLLWKKLQ)) ?
3

Record: CC(C)C[C@@H]1NC(=O)[C@H](CCC(N)=O)NC(=O)[C@H](CCCCN)NC(=O)[C@H](CC(C)C)NC(=O)[C@H](CC(C)C)NC(=O)[C@H](Cc2c[nH]c3ccccc23)NC(=O)[C@H](CCCCN)NC(=O)[C@H](CCCCN)NC(=O)[C@H](CCCCN)NC(=O)[C@H](CCCCN)NC1=O [BPC108W, c(LKKKKWLLKQ)] (cyclo(KKKKWLLKQL))
4

Further cases:
I am curious: what Hemolysis (%) at 50 µM value has been reported for CC(C)C[C@@H]1NC(=O)[C@H](CCCCN)NC(=O)[C@H](CCCCN)NC(=O)[C@H](Cc2c[nH]c3ccccc23)NC(=O)[C@H](CCCCN)NC(=O)[C@H](CCCCN)NC(=O)[C@H](CCCCN)NC(=O)[C@H](CCCCN)NC(=O)[C@H](CCCCN)NC(=O)[C@H](CCC(N)=O)NC1=O [BPC202W, c(KKKKKWKKLQ)] (cyclo(KKKKKWKKLQ)) ?
0
